Here's a batch of molecules along with measured IC50 for PI3-Kα (Mus musculus (Mouse), UniProt P42337).
measurement.label: IC50 (µM)

{"molecule": "COc1ccc(-c2cc3c(C)nc(N)nc3n(C3CCNC3)c2=O)cn1 (centres unmarked) [Compound 247]", "system": "PI3-Kα (Mus musculus (Mouse), UniProt P42337)", "measurement.label": "IC50", "unit.of.measure": "µM", "reported.result": 0.2}
{"molecule": "Cc1nc(N)nc2c1cc(-c1ccc(N3CCCC3)nc1)c(=O)n2[C@H]1CC[C@H](O)CC1 [Compound 253]", "system": "PI3-Kα (Mus musculus (Mouse), UniProt P42337)", "measurement.label": "IC50", "unit.of.measure": "µM", "reported.result": 0.019}
{"molecule": "CNc1nc(C)c2cc(-c3cccc(OC)c3)c(=O)n(C3CCCC3)c2n1 [Compound 143]", "system": "PI3-Kα (Mus musculus (Mouse), UniProt P42337)", "measurement.label": "IC50", "unit.of.measure": "µM", "reported.result": 0.244}
{"molecule": "Cc1nc(N)nc2c1cc(-c1cnn(CC(C)(C)O)c1)c(=O)n2C1CCCC1 [Compound 240]", "system": "PI3-Kα (Mus musculus (Mouse), UniProt P42337)", "measurement.label": "IC50", "unit.of.measure": "µM", "reported.result": 0.089}
{"molecule": "CNc1nc(C)c2cc(-c3ccc(O)c(OC)c3)c(=O)n(C3CCCC3)c2n1 [Compound 108]", "system": "PI3-Kα (Mus musculus (Mouse), UniProt P42337)", "measurement.label": "IC50", "unit.of.measure": "µM", "reported.result": 0.00157}
{"molecule": "Cc1nc(N)nc2c1cc(-c1cnc3[nH]ccc3c1)c(=O)n2[C@@H]1CC[C@@H](O)C1 [Compound 165]", "system": "PI3-Kα (Mus musculus (Mouse), UniProt P42337)", "measurement.label": "IC50", "unit.of.measure": "µM", "reported.result": 0.0012}
{"molecule": "CCn1nccc1NC(=O)c1cc2c(C)nc(N)nc2n([C@H]2CC[C@H](O)CC2)c1=O [Compound 278]", "system": "PI3-Kα (Mus musculus (Mouse), UniProt P42337)", "measurement.label": "IC50", "unit.of.measure": "µM", "reported.result": 0.0013}
{"molecule": "Cc1nc(N)nc2c1cc(-c1ccc(F)cc1)c(=O)n2CC(C)(C)O [Compound 170]", "system": "PI3-Kα (Mus musculus (Mouse), UniProt P42337)", "measurement.label": "IC50", "unit.of.measure": "µM", "reported.result": 3.4}
{"molecule": "CNc1nc(C)c2cc(-c3cccc(O)c3)c(=O)n(C3CCCC3)c2n1 [Compound 146]", "system": "PI3-Kα (Mus musculus (Mouse), UniProt P42337)", "measurement.label": "IC50", "unit.of.measure": "µM", "reported.result": 0.000731}
{"molecule": "Cc1nc(N)nc2c1cc(-c1cccc(Cl)n1)c(=O)n2C1CCCC1 [Compound 231]", "system": "PI3-Kα (Mus musculus (Mouse), UniProt P42337)", "measurement.label": "IC50", "unit.of.measure": "µM", "reported.result": 0.17}
{"molecule": "Cc1nc(N)nc2c1cc(-c1cnc3[nH]ccc3c1)c(=O)n2C1CCOCC1 [Compound 201]", "system": "PI3-Kα (Mus musculus (Mouse), UniProt P42337)", "measurement.label": "IC50", "unit.of.measure": "µM", "reported.result": 0.0037}
{"molecule": "Cc1nc(N)nc2c1cc(-c1cnc3[nH]ccc3c1)c(=O)n2C1CCCC1 [Compound 127]", "system": "PI3-Kα (Mus musculus (Mouse), UniProt P42337)", "measurement.label": "IC50", "unit.of.measure": "µM", "reported.result": 0.00048}
{"molecule": "COc1ncc(-c2cc3c(C)nc(N)nc3n([C@H]3C[C@H](OCC(N)=O)C3)c2=O)cc1F [Compound 318]", "system": "PI3-Kα (Mus musculus (Mouse), UniProt P42337)", "measurement.label": "IC50", "unit.of.measure": "µM", "reported.result": 0.00214}
{"molecule": "Cc1nc(N)nc2c1cc(-c1cnn(C)c1)c(=O)n2[C@H]1CC[C@H](O)CC1 [Compound 154]", "system": "PI3-Kα (Mus musculus (Mouse), UniProt P42337)", "measurement.label": "IC50", "unit.of.measure": "µM", "reported.result": 0.018}
{"molecule": "COc1ccc(-c2cc3c(C)nc(N)nc3n(CC3(F)CCOCC3)c2=O)cn1 [Compound 243]", "system": "PI3-Kα (Mus musculus (Mouse), UniProt P42337)", "measurement.label": "IC50", "unit.of.measure": "µM", "reported.result": 0.018}
{"molecule": "CNc1nc(C)c2cc(-c3cnc(N)c(OC[C@H](C)N)n3)c(=O)n(C3CCCC3)c2n1 [Compound 103]", "system": "PI3-Kα (Mus musculus (Mouse), UniProt P42337)", "measurement.label": "IC50", "unit.of.measure": "µM", "reported.result": 0.4}
{"molecule": "CO[C@H]1CC[C@H](n2c(=O)c(-c3cc[nH]n3)cc3c(C)nc(N)nc32)CC1 [Compound 187]", "system": "PI3-Kα (Mus musculus (Mouse), UniProt P42337)", "measurement.label": "IC50", "unit.of.measure": "µM", "reported.result": 0.0095}
{"molecule": "COc1ncc(-c2cc3c(C)nc(N)nc3n([C@H]3CC[C@@H](OCCO)CC3)c2=O)cc1F [Compound 294]", "system": "PI3-Kα (Mus musculus (Mouse), UniProt P42337)", "measurement.label": "IC50", "unit.of.measure": "µM", "reported.result": 0.0026}
{"molecule": "C#Cc1cc2c(C)nc(N)nc2n(C2CCC2)c1=O [Compound 270]", "system": "PI3-Kα (Mus musculus (Mouse), UniProt P42337)", "measurement.label": "IC50", "unit.of.measure": "µM", "reported.result": 0.11}
{"molecule": "CNc1nc(C)c2cc(-c3c[nH]c(C)n3)c(=O)n(C3CCCC3)c2n1 [Compound 245]", "system": "PI3-Kα (Mus musculus (Mouse), UniProt P42337)", "measurement.label": "IC50", "unit.of.measure": "µM", "reported.result": 0.067}
